Tested on: Collectotrichum graminicola (Cg)
Experiment Notes: In vitro pathogen growth inhibition assay, Cg
Format: cell-based
Particulars: 48 h, ≥90% growth inhibition; 48 hours; vs 2% DMSO control; read-out: Compound Concentration (ppm) sufficient for ≥90% inhibition of Cg
Experimental: A growth inhibition assay was conducted to determine the ability of compounds to control the growth of fungal pathogens, such as Botrtyis cinerea (Bc), Collectotrichum graminicola (Cg), Diplodia maydis (Dm), Fusarium moniliforme (Fm), Fusarium virguliforme (Fv), Phytophthora capsici (Pc), Rhizoctonia solani (Rs), and Septoria tritici (St). […] Plate readings were repeated at both 24 and 48 hours. […]
Quantity: IC90

COc1ccc(F)cc1[C@H](Cn1c(=O)n(C(C)(C)C(=O)NC(C)C)c(=O)c2c(C)c(-n3cccn3)sc21)OCCC#N [Compound I-191]
≥ 0.4 µg/mL

Lookup: Report IC90 for COc1ccc(F)cc1[C@H](Cn1c(=O)n([C@@H](C)C(=O)NC(C)C)c(=O)c2c(C)c(-n3nccn3)sc21)OCC(C)(C)C#N [Compound I-254]
Found: > 50 µg/mL

Lookup: Report IC90 for COc1ccc(F)cc1[C@H](Cn1c(=O)n(C(C)(C)C(=O)NC(C)C)c(=O)c2c(C)c(-n3nccn3)sc21)OCCCO [Compound I-319]
Found: > 50 µg/mL

Lookup: Report IC90 for COc1ccc(F)cc1[C@H](Cn1c(=O)n(C(C)(C)C(N)=O)c(=O)c2c(C)c(-n3cccn3)sc21)OC1CCC(=O)CC1 [Compound I-170]
Found: ≥ 50 µg/mL

---

Tested on: Rhizoctonia solani (Rs)
Experiment Notes: In vitro pathogen growth inhibition assay, Rs (mycelial plugs)
Format: cell-based
Particulars: Rhizoctonia solani, 48 h, ≥90% growth inhibition; mycelial plugs; 48 hours; vs 2% DMSO control; read-out: Compound Concentration (ppm) sufficient for ≥90% inhibition of Rs
Quantity: IC90 (µg/mL)
Output spec: scalar in µg/mL, unitless text.

Field: example entries. Status: answers known.
CCNC(=O)[C@H](C)n1c(=O)c2c(C)c(C(=O)OCC)sc2n(C[C@H](OCCC#N)c2cc(F)ccc2OC)c1=O
0.4
COc1ccccc1[C@H](Cn1c(=O)n(C(C)(C)C(=O)NC(C)C)c(=O)c2c(C)c(-n3nccn3)sc21)OCCC#N
0.08
CNC(=O)C(C)(C)n1c(=O)c2c(C)c(-n3nccn3)sc2n(C[C@H](OCCC#N)c2ccccc2OC)c1=O
0.08
COc1ccccc1[C@H](Cn1c(=O)n(C(C)(C)C(=O)N2CCCC2)c(=O)c2c(C)c(-n3nccn3)sc21)OCCC#N
2

Next up:
Lookup: Retrieve IC90 on Rhizoctonia solani (Rs); query COc1ccc(F)cc1[C@H](Cn1c(=O)n(C(C)(C)C(N)=O)c(=O)c2c(C)c(-n3cccn3)sc21)OC1CCC(=O)CC1
Found: 50

---

Catalogue of compounds with associated log10 of IC90
Tested on: Collectotrichum graminicola (Cg)
Experiment Notes: In vitro pathogen growth inhibition assay, Cg
Format: cell-based
Particulars: 48 h, ≥90% growth inhibition; 48 hours; vs 2% DMSO control; read-out: Compound Concentration (ppm) sufficient for ≥90% inhibition of Cg
Each number you see is log10 of IC90, and the unit inside the log is µg/mL.

COc1ccc(F)cc1CCn1c(=O)n(C(C)(C)C(=O)NC(C)C)c(=O)c2c(C)c(-n3nccn3)sc21
0.30
COCCO[C@@H](Cn1c(=O)n([C@H](C)C(=O)NC(C)C)c(=O)c2c(C)c(-n3nccn3)sc21)c1cc(F)ccc1OC
-1.10
COc1ccc(F)cc1[C@H](Cn1c(=O)n(C(C)(C)C(=O)NC(C)C)c(=O)c2c(C)c(-n3cccn3)sc21)OCCS(C)(=O)=O
0.30
Cc1c(-n2cccn2)sc2c1c(=O)n(C(C)(C)C(=O)NC(C)C)c(=O)n2C[C@H](OCCC#N)c1cc(F)ccc1O
1.70
CC(=O)Oc1ccccc1[C@H](Cn1c(=O)n(C(C)(C)C(=O)NC(C)C)c(=O)c2c(C)c(-n3nccn3)sc21)OCCC#N
0.30
COc1ccc(F)cc1[C@H](Cn1c(=O)n([C@@H](C)C(=O)N(C)C(C)C)c(=O)c2c(C)c(-n3cccn3)sc21)OCCO
0.30
CNC(=O)C(C)(C)n1c(=O)c2c(C)c(-n3nccn3)sc2n(C[C@H](OCCC#N)c2ccccc2OC)c1=O
1.70
CCNC(=O)[C@H](C)n1c(=O)c2c(C)c(C(=O)OCC)sc2n(C[C@H](OCCC#N)c2cc(F)ccc2OC)c1=O
0.30

Lookup: Report log10 of IC90 for Cc1c(-n2nccn2)sc2c1c(=O)n(C(C)(C)C(=O)NC(C)C)c(=O)n2C[C@H](OC(C)C)c1cc(F)ccc1CCC#N
Found: -0.40

Lookup: Report log10 of IC90 for CCNC(=O)C(C)(C)n1c(=O)c2c(C)c(-c3ncco3)sc2n(C[C@H](OC2CCOCC2)c2ccccc2OC)c1=O
Found: 1.70

Lookup: Report log10 of IC90 for CCNC(=O)[C@@H](C)n1c(=O)c2c(C)c(C(=O)OCC)sc2n(C[C@H](OCCC#N)c2cc(F)ccc2OC)c1=O
Found: 1.00

Lookup: Report log10 of IC90 for COc1ccc(F)cc1[C@H](Cn1c(=O)n([C@H](C)C(=O)NC2CCC2)c(=O)c2c(C)c(-n3cccn3)sc21)OCCC#N
Found: 0.30

Lookup: Report log10 of IC90 for COc1ccc(F)cc1[C@@H](O)Cn1c(=O)n([C@@H](C)C(=O)N(C)C(C)C)c(=O)c2c(C)c(-n3nccn3)sc21
Found: -0.40

Lookup: Report log10 of IC90 for CCNC(=O)C(C)(C)n1c(=O)c2c(C)c(C(=O)OCC)sc2n(C[C@H](OCCC#N)c2cc(F)ccc2O)c1=O
Found: 1.70

Lookup: Report log10 of IC90 for COc1ccc(F)cc1[C@H](Cn1c(=O)n(C(C)(C)C(=O)NC(C)C)c(=O)c2c(C)c(-n3nccn3)sc21)OC[C@@H](C)C#N
Found: -1.10

Lookup: Report log10 of IC90 for COc1ccc(F)cc1[C@H](Cn1c(=O)n([C@H](C)C(=O)NC(C)C)c(=O)c2c(C)c(-n3nccn3)sc21)OCCC#N
Found: -1.10

Lookup: Report log10 of IC90 for COc1ccc(F)cc1[C@@H](O)Cn1c(=O)n([C@H](C)C(=O)N(C)C(C)C)c(=O)c2c(C)c(-n3nccn3)sc21
Found: 0.30

Lookup: Report log10 of IC90 for Cc1ccc(F)cc1[C@H](Cn1c(=O)n(C(C)(C)C(=O)NC(C)C)c(=O)c2c(C)c(-n3nccn3)sc21)OCCO
Found: -0.40

Lookup: Report log10 of IC90 for CCc1ccc(F)cc1[C@H](Cn1c(=O)n(C(C)(C)C(=O)NC(C)C)c(=O)c2c(C)c(-n3nccn3)sc21)OCCO
Found: -1.10

Lookup: Report log10 of IC90 for CCc1ccc(F)cc1[C@H](Cn1c(=O)n(C(C)(C)C(=O)NC(C)C)c(=O)c2c(C)c(-n3nccn3)sc21)OC[C@@H](C)C#N
Found: -1.10

Lookup: Report log10 of IC90 for Cc1c(-n2nccn2)sc2c1c(=O)n(C(C)(C)C(=O)NC(C)C)c(=O)n2CCc1cc(F)ccc1CCCC#N
Found: 1.00

---

Test system: Rhizoctonia solani (Rs)
Experiment Notes: In vitro pathogen growth inhibition assay, Rs (mycelial plugs)
Assay type: cell-based
Particulars: Rhizoctonia solani, 48 h, ≥90% growth inhibition; mycelial plugs; 48 hours; vs 2% DMSO control; read-out: Compound Concentration (ppm) sufficient for ≥90% inhibition of Rs
Quantity: IC90

Cc1c(-n2nccn2)sc2c1c(=O)n(C(C)(C)C(=O)NC(C)C)c(=O)n2CCc1cc(F)ccc1OCc1ccccc1
> 50 µg/mL
COc1ccc(F)cc1[C@H](Cn1c(=O)n(C(C)(C)C(=O)NC(C)C)c(=O)c2c(C)c(CO)sc21)OCCC#N
> 50 µg/mL
Cc1c(-n2nccn2)sc2c1c(=O)n(C(C)(C)C(=O)NC(C)C)c(=O)n2CCc1cc(F)ccc1OC(C)C
10 µg/mL
Cc1c(-n2nccn2)sc2c1c(=O)n(C(C)(C)C(=O)NC(C)C)c(=O)n2C[C@H](OCC(C)(C)O)c1cc(F)ccc1OCC#N
0.4 µg/mL

Lookup: Report IC90 for COc1ccc(F)cc1[C@@](O)(CO)Cn1c(=O)n(C(C)(C)C(=O)NC(C)C)c(=O)c2c(C)c(-n3nccn3)sc21
Found: 0.08 µg/mL

Lookup: Report IC90 for COCCO[C@@H](Cn1c(=O)n([C@H](C)C(=O)NC(C)C)c(=O)c2c(C)c(-n3nccn3)sc21)c1cc(F)ccc1OC
Found: 0.08 µg/mL

Lookup: Report IC90 for CCNC(=O)C(C)(C)n1c(=O)c2c(C)c(-n3nccn3)sc2n(C[C@H](O)c2cc(F)ccc2OC)c1=O
Found: 0.4 µg/mL

Lookup: Report IC90 for Cc1c(-n2nccn2)sc2c1c(=O)n(C(C)(C)C(=O)NC(C)C)c(=O)n2C[C@H](OCCC#N)c1cc(F)ccc1O
Found: 0.4 µg/mL

Lookup: Report IC90 for CCOC(=O)c1sc2c(c1C)c(=O)n([C@@H](C)C(=O)N1CCCC1)c(=O)n2C[C@H](OCCC#N)c1cc(F)ccc1OC
Found: 10 µg/mL

Lookup: Report IC90 for CCc1ccc(F)cc1CCn1c(=O)n(C(C)(C)C(=O)NC(C)C)c(=O)c2c(C)c(-n3nccn3)sc21
Found: 10 µg/mL

Lookup: Report IC90 for COc1ccc(F)cc1[C@H](Cn1c(=O)n(C(C)(C)C(=O)NC(C)C)c(=O)c2c(C)c(-n3cccn3)sc21)OCC#N
Found: 2 µg/mL

Lookup: Report IC90 for COc1ccc(F)cc1[C@H](Cn1c(=O)n([C@@H](C)C(=O)N(C)C(C)C)c(=O)c2c(C)c(-n3cccn3)sc21)OCCC#N
Found: 2 µg/mL

Lookup: Report IC90 for Cc1c(-n2nccn2)sc2c1c(=O)n(C(C)(C)C(=O)NC(C)C)c(=O)n2C[C@H](OCC(C)(C)C#N)c1cc(C#N)ccc1OCC#N
Found: 2 µg/mL

Lookup: Report IC90 for CCOC(=O)c1sc2c(c1C)c(=O)n(C(C)(C)C(=O)NC(C)C)c(=O)n2C[C@H](OCCC#N)c1cc(F)ccc1OC
Found: 0.08 µg/mL

Lookup: Report IC90 for COc1ccc(F)cc1[C@H](Cn1c(=O)n([C@H](C)C(=O)NC(C)C)c(=O)c2c(C)c(-n3nccn3)sc21)OCCC#N
Found: 0.08 µg/mL

Lookup: Report IC90 for COc1ccccc1[C@H](Cn1c(=O)n([C@H](C)C(=O)N(C)C(C)C)c(=O)c2c(C)c(-n3nccn3)sc21)OCCC#N
Found: 10 µg/mL

Lookup: Report IC90 for CNC(=O)C(C)(C)n1c(=O)c2c(C)c(-n3nccn3)sc2n(C[C@H](OCCC#N)c2cc(F)ccc2OC)c1=O
Found: 0.08 µg/mL

Lookup: Report IC90 for CCOC(=O)c1sc2c(c1C)c(=O)n(C(C)(C)C(=O)NC(C)C)c(=O)n2C[C@H](OCCO)c1cc(F)ccc1OC
Found: 0.08 µg/mL

The measurements presented in this section are drawn from patent US10941157B2.
